system: HCT-116 colon; experiment: NCI tumour cell line growth inhibition, 48 h
MEASURED PARAMETER: GI50

A selection of reference data follows.
[[record]]
compound = "O=c1c2c3c(sc2n2c(CCl)nnc2n1Cc1ccccc1)CCCC3"
reading = "1510 nM"

[[record]]
compound = "Cn1cc(-c2ccc(-c3cn(C)c4ncccc34)[nH]2)c2cccnc21"
reading = "2810 nM"

[[record]]
compound = "COc1cc2c3c(n(CCCN(C)C)c(=O)c2cc1OC)-c1cc2c(cc1C3=O)OCO2"
reading = "220 nM"

[[record]]
compound = "O=C(CC1(O)C(=O)N(Cc2ccccc2)c2ccc(Br)cc21)c1ccc(C(=O)NCC2CCC3(CC2)OOC2(CCCCC2)OO3)cc1 (stereo not given)"
reading = "2080 nM"


Problem: Given the entry O=[N+]([O-])[O][Sn]([O][Sn]([O][N+](=O)[O-])([c]1ccccc1)[c]1ccccc1)([c]1ccccc1)[c]1ccccc1 , report its measured GI50.
Result: > 100000 nM

====

system: SK-MEL-28 melanoma; assay: NCI tumour cell line growth inhibition, 48 h
MEASURED PARAMETER: GI50

[[record]]
compound = "NC(=O)[C@@H](CCC(F)(F)F)N(Cc1ccc(-c2ncon2)cc1F)S(=O)(=O)c1ccc(Cl)cc1"
reading = "45500 nM"

[[record]]
compound = "Cn1ccnc1C(=O)/C=C/c1ccc(C(=O)Nc2ccccc2F)cc1"
reading = "2040 nM"

[[record]]
compound = "N#CCCN1C/C(=C/c2ccccc2)C(=O)/C(=C/c2ccccc2)C1"
reading = "1790 nM"


Okay, next one:
Problem: Entry O=C(CCl)Nc1ccc2c(Nc3cc(O)ccc3Cl)ncnc2c1 : reported GI50 = ?
Result: 3660 nM

====

tested on: HCC-2998 colon; assay: NCI tumour cell line growth inhibition, 48 h
The entries below are paired with their reported TGI.
Give the number; µM is assumed, so skip it.

Please review the following examples before continuing.
[[record]]
molecule = "N#Cc1c(-c2ccc(Cl)cc2)cc(-c2cc(O)ccc2O)nc1N"
target_system = "HCC-2998 colon"
measured_parameter = "TGI"
reading = 3.46

[[record]]
molecule = "C=C1CC[C@@H]2C(C)(C)C(O)CCC2(C)C1COc1ccc2ccc(=O)oc2c1 (stereo partly specified)"
target_system = "HCC-2998 colon"
measured_parameter = "TGI"
reading = 34.8

[[record]]
molecule = "Cc1cc(=O)[nH]c(NN2C(Cl)C(=O)C2c2ccc(O)cc2)n1 (stereo unspecified)"
target_system = "HCC-2998 colon"
measured_parameter = "TGI"
reading = 23.3

[[record]]
molecule = "COc1ccc(NC(=O)c2sc3nc(C)c(C(=O)/C=C/c4ccccc4)cc3c2N)cc1"
target_system = "HCC-2998 colon"
measured_parameter = "TGI"
reading = 1.76

[[record]]
molecule = "O=C1CS/C(=N/S(=O)(=O)c2ccc(N3N=C4c5ccccc5CC4C3c3cccs3)cc2)N(c2ccccc2)C1 (stereo unspecified)"
target_system = "HCC-2998 colon"
measured_parameter = "TGI"
reading = 48.5

[[record]]
molecule = "COc1cc(C(=O)/C=C/c2cc(-c3cc(OC)c(OC)c(OC)c3)n[nH]2)cc(OC)c1OC"
target_system = "HCC-2998 colon"
measured_parameter = "TGI"
reading = 3.39

[[record]]
molecule = "O=C(Nc1ccc(-n2ccc3c(NC(=O)c4ccccc4)nccc32)cc1)c1cccc(C(F)(F)F)c1"
target_system = "HCC-2998 colon"
measured_parameter = "TGI"
reading = 11.6

[[record]]
molecule = "Cc1c(-c2ccc(O)c(O)c2)oc(=O)c2c(O)cc(O)cc12"
target_system = "HCC-2998 colon"
measured_parameter = "TGI"
reading = 88.6

[[record]]
molecule = "Cc1cc(C)n(-c2nc3ccccc3c(=O)[nH]2)n1"
target_system = "HCC-2998 colon"
measured_parameter = "TGI"
reading = 31.3

[[record]]
molecule = "CC(C)(C)C1CCC2c3c([nH]c4ccccc34)C3C(=O)N(c4ccc(C(=O)O)cc4)C(=O)C3C2C1 (stereo unspecified)"
target_system = "HCC-2998 colon"
measured_parameter = "TGI"
reading = 29


Problem: If you can, please state the reported TGI value of Cc1ccc2nc3ccccc3c(NCc3ccccc3)c2c1 .
Result: 6.86

Problem: Field entry: Cn1cc(-c2ccc(-c3cn(C)c4ncccc34)[nH]2)c2cccnc21
Result: 5.89

Problem: And what about the molecule COc1ccc2oc(=O)cc(C3c4ccc([nH]4)C(c4cc(=O)oc5ccc(OC)cc45)c4ccc([nH]4)C(c4cc(=O)oc5ccc(OC)cc45)c4ccc([nH]4)C(c4cc(=O)oc5ccc(OC)cc45)c4ccc3[nH]4)c2c1 (stereo unspecified) ?
Result: 4.06

Problem: What would you report for O=C(Nc1ccc(Cl)cc1)Oc1ccc(C(=S)Nc2ccc(Br)cc2)cc1 ?
Result: 33.6

Problem: Entry to check: N#Cc1cc(-c2nc3cc(F)ccc3s2)ccc1N
Result: 0.0604

Problem: Same thing, different molecule: COc1c(C)c(OC)c2c(c1O)[C@@H]1[C@@H]3Cc4c(OC)c(C)c(OC)c(O)c4[C@H](CNC(=O)c4ccc5ccccc5n4)N3[C@@H](C#N)[C@H](C2)N1C
Result: 0.0007

Problem: Could you do the same for NCCOc1ncccc1/C=C1\C2C=CC=CC2C2C=CC(F)=CC12 (stereo unspecified) , please?
Result: 2.57

====

test system: A498 renal; test: NCI tumour cell line growth inhibition, 48 h
MEASURED PARAMETER: GI50

As a guide, the following entries are already answered.
[[record]]
entry_smiles = "O=[N+]([O-])[O][Sn]([O][Sn]([O][N+](=O)[O-])([c]1ccccc1)[c]1ccccc1)([c]1ccccc1)[c]1ccccc1"
measured_parameter = "GI50"
reading = "> 100 µM"

[[record]]
entry_smiles = "Cc1ccc2nc3ccccc3c(NCc3ccccc3)c2c1"
measured_parameter = "GI50"
reading = "1.24 µM"

[[record]]
entry_smiles = "Cn1cc(-c2ccc(-c3cn(C)c4ncccc34)[nH]2)c2cccnc21"
measured_parameter = "GI50"
reading = "> 26.3 µM"


Problem: Request: GI50, test system A498 renal, entry COc1cc2c3c(n(CCCN(C)C)c(=O)c2cc1OC)-c1cc2c(cc1C3=O)OCO2
Result: 9.92 µM

Problem: And the next one, O=C(N/N=C\c1cc(Cl)ccc1O)c1ccncc1 ?
Result: 15.2 µM

Problem: For N#Cc1ccccc1C#C/C=C\C#Cc1cccs1 then?
Result: 18.5 µM

Problem: Proceed to O=c1c2c3c(sc2n2c(CCl)nnc2n1Cc1ccccc1)CCCC3
Result: 9.17 µM

Problem: Please do the same for COc1ccc(C(=O)NCCNc2nccc(-c3c(-c4ccc(F)cc4)nc4sccn34)n2)cc1 as well.
Result: 2.07 µM

====

A collection of compounds and their measured TGI
system: HCT-15 colon; experiment: NCI tumour cell line growth inhibition, 48 h

# example entries with known answers
[[record]]
compound = "COc1c(C)c(OC)c2c(c1O)[C@@H]1[C@@H]3Cc4c(OC)c(C)c(OC)c(O)c4[C@H](CNC(=O)c4ccc5ccccc5n4)N3[C@@H](C#N)[C@H](C2)N1C"
reading = "> 0.0597 µM"

[[record]]
compound = "Cc1ccc(C(=O)CCl)o1"
reading = "> 10 µM"

[[record]]
compound = "CCN1C(Cl)=NS(=O)(=O)c2ccccc21"
reading = "35.2 µM"

[[record]]
compound = "CN(C)c1ccc(/C=C(/C(=O)O)c2csc(-c3nc(/C(=C\\c4ccc(N(C)C)cc4)C(=O)O)cs3)n2)cc1"
reading = "> 100 µM"

[[record]]
compound = "OC(c1ccc(F)cc1)(c1ccc(F)cc1)C1CC1"
reading = "68.2 µM"


Problem: # TGI lookup, item C=CCCCC(=O)CCC(=O)OCC1O[C@@H](O[C@@H]2C(O)[C@@H](OC(C)=O)C(C)O[C@H]2O[C@H](CC=C)CCCCC)C(O)[C@@H](OC(=O)/C(C)=C/C)[C@@H]1OC(=O)/C=C/c1ccccc1 (some centres undefined)
Result: > 50 µM

Problem: Cool, now CN1N=C(c2ccncc2)OC1c1ccc(Cl)cc1Cl (centres undefined)
Result: > 100 µM

Problem: And Cc1ccc2nc3ccccc3c(NCc3ccccc3)c2c1 ?
Result: 7.64 µM

Problem: Also, CN(C)c1ccc(/C=C2\N=C(N/N=C/c3ccc(N(C)C)cc3)NC2=O)cc1 please.
Result: > 100 µM

====

TGI overview
system: CCRF-CEM leukemia; test: NCI tumour cell line growth inhibition, 48 h

Solved entries:
[[record]]
molecule = "CC(C)(C)C1CCC2c3c([nH]c4ccccc34)C3C(=O)N(c4ccc(C(=O)O)cc4)C(=O)C3C2C1 (centres undefined)"
target_system = "CCRF-CEM leukemia"
measured_parameter = "TGI"
reading = "12.5 µM"

[[record]]
molecule = "CC(Cc1ccc(O)cc1)NCC(O)c1ccc(O)c(O)c1 (centres undefined)"
target_system = "CCRF-CEM leukemia"
measured_parameter = "TGI"
reading = "> 100 µM"

[[record]]
molecule = "CC(=O)OCCOCn1cc(C=O)c2ccccc21"
target_system = "CCRF-CEM leukemia"
measured_parameter = "TGI"
reading = "> 100 µM"

[[record]]
molecule = "CC1=C2[C@H]3OC(=O)[C@@H](C)[C@@H]3CC[C@@]2(C)C=CC1=O"
target_system = "CCRF-CEM leukemia"
measured_parameter = "TGI"
reading = "> 100 µM"

[[record]]
molecule = "CC1(SCC(N)C(=O)O)CC(=O)NC1=O (centres undefined)"
target_system = "CCRF-CEM leukemia"
measured_parameter = "TGI"
reading = "> 100 µM"

[[record]]
molecule = "C[C@]12CC[C@H](O)C[C@@H]1CC[C@@H]1[C@@H]2CC[C@]2(C)[C@@H](c3cc(C(F)(F)F)n[nH]3)CC[C@@H]12"
target_system = "CCRF-CEM leukemia"
measured_parameter = "TGI"
reading = "5.43 µM"

[[record]]
molecule = "CO/N=C/C=C\\C(=O)N/C=C/C[C@H]1/C=C/[C@H](O)/C=C\\C=C\\c2cccc(O)c2C(=O)O1"
target_system = "CCRF-CEM leukemia"
measured_parameter = "TGI"
reading = "> 77 µM"

[[record]]
molecule = "CN(C)c1ccc(/C=C(/C(=O)O)c2csc(-c3nc(/C(=C\\c4ccc(N(C)C)cc4)C(=O)O)cs3)n2)cc1"
target_system = "CCRF-CEM leukemia"
measured_parameter = "TGI"
reading = "> 100 µM"


Problem: Fill blank: measured TGI of the molecule CCN1C(Cl)=NS(=O)(=O)c2ccccc21 is ____.
Result: 81 µM
